System: Mycobacterium tuberculosis
Assay Procedure: Antitubercular activity against Mycobacterium tuberculosis H37Rv ATCC 27294 using 7H9/ADC/Tween medium after 1 week in absence of guanine by broth microdilution method
Format: functional
Experimental Conditions: H37Rv ATCC 27294, 168 h
Measure: MIC (µM)
Give just the numeric value; µM need not be written.

Known MIC results, listed for orientation:
C[C@H](Oc1cccc(F)c1C#N)C(=O)Nc1ccc2oc(-c3ccncc3)nc2c1 = 4
C[C@H](Nc1cccc(Cl)c1Cl)C(=O)Nc1ccc2oc(-c3ccncc3)nc2c1 = 12
COc1ccc(-c2nc3cc(NC(=O)[C@H](C)Oc4ccccc4C#N)ccc3o2)cc1 = 1.2

Then this molecule:
What the record says about `C[C@H](Oc1cccc(Cl)c1Cl)C(=O)Nc1ccc2oc(-c3ccc(OCC(=O)O)cc3)nc2c1` : MIC is 9

---

Test system: Mycobacterium tuberculosis
Assay Procedure: Antitubercular activity against Mycobacterium tuberculosis H37Rv ATCC 27294 using GAST/Fe medium after 1 week in presence of guanine by broth microdilution method
Format: functional
Experimental Conditions: H37Rv ATCC 27294, 168 h
Measure: MIC (µM)
// return numeric value only (unit: µM, not printed)

MIC measured on `C[C@H](Oc1cccc(F)c1C#N)C(=O)Nc1ccc2oc(-c3ccncc3)nc2c1` = 11

// recorded MIC for `C[C@H](Oc1cccc(Cl)c1Cl)C(=O)Nc1ccc2oc(-c3ccc(CN)cc3)nc2c1` : 11

---

Assay Procedure: Elimination half life in mouse plasma at 20 mg/kg, po
Type: ADME, organism-based
Experimental Conditions: read-out: beta t1/2 (converted)
Measure: half-life (h)
Kindly answer with a numeric value in h, unit omitted.

Value of measured half-life for the entry `C[C@H](Nc1cccc(F)c1F)C(=O)Nc1ccc2oc(-c3ccc(C#N)cc3)nc2c1` : 5

---

System: Mycobacterium tuberculosis
Assay Procedure: Antitubercular activity against Mycobacterium tuberculosis H37Rv ATCC 27294 using GAST/Fe medium after 1 week in presence of guanine by broth microdilution method
Assay type: functional
Experimental Conditions: H37Rv ATCC 27294, 168 h
Measure: MIC (µM)
Value expressed in µM; do not type the unit.

Item `COc1ccc(-c2nc3cc(NC(=O)[C@H](C)Oc4cccc(F)c4F)ccc3o2)cc1` ; assay system Mycobacterium tuberculosis; MIC reported as 8

// returns MIC for `C[C@H](Oc1ccccc1O)C(=O)Nc1ccc2oc(-c3ccc(C#N)cc3)nc2c1` with Mycobacterium tuberculosis; value = 25

For `C[C@H](Oc1cccc(Cl)c1Cl)C(=O)Nc1ccc2oc(-c3ccc(C(=O)NO)cc3)nc2c1` on Mycobacterium tuberculosis, measured MIC was 6

Tested system Mycobacterium tuberculosis; MIC recorded for `CCOC(=O)COc1cccc(-c2nc3cc(NC(=O)[C@H](C)Oc4cccc(Cl)c4Cl)ccc3o2)c1` was 1.4

Log: Mycobacterium tuberculosis, molecule `C[C@H](Nc1cccc(Cl)c1Cl)C(=O)Nc1ccc2oc(-c3ccc(C#N)cc3)nc2c1` , MIC = 13

Item: `C[C@H](Nc1cccc(F)c1F)C(=O)Nc1ccc2oc(-c3ccc(C#N)cc3)nc2c1` | System: Mycobacterium tuberculosis | MIC: 6

Item: `C[C@H](Oc1cccc(F)c1F)C(=O)Nc1ccc2oc(-c3ccc(O)cc3)nc2c1` | System: Mycobacterium tuberculosis | MIC: 19

COc1ccc(OC(C)C(=O)Nc2ccc3oc(-c4ccncc4)nc3c2)cc1 (centres undefined) tested on Mycobacterium tuberculosis gave MIC: 24

Param item: `C[C@H](Oc1cccc(Cl)c1Cl)C(=O)Nc1ccc2oc(-c3ccc(C#N)cc3)nc2c1` ; param system: Mycobacterium tuberculosis; output MIC: 5

Log: Mycobacterium tuberculosis, molecule `C[C@H](Oc1cccc(Cl)c1Cl)C(=O)Nc1ccc2oc(-c3ccncc3)nc2c1` , MIC = 37

# MIC measured on Mycobacterium tuberculosis for item `COc1ccc(-c2nc3cc(NC(=O)[C@H](C)Oc4ccccc4CN)ccc3o2)cc1` = 16

Tested on Mycobacterium tuberculosis: `C[C@H](Nc1cccc(Cl)c1Cl)C(=O)Nc1ccc2oc(-c3ccncc3)nc2c1` . Observed MIC: 50

The measured MIC that `COc1ccc(-c2nc3cc(NC(=O)[C@H](C)Oc4cccc(F)c4F)ccc3o2)cn1` showed for Mycobacterium tuberculosis is 8

---

Assay Procedure: Cytotoxicity against human HepG2 cells after 24 hrs by LDH release assay
Assay type: cell-based
Experimental Conditions: HepG2 cells, read-out: LD50
Measured CC50 at 24 h of individual entries

C[C@H](Oc1cccc(F)c1F)C(=O)Nc1ccc2oc(-c3ccc(C#N)cc3)nc2c1 = > 25 µM
COc1ccc(-c2nc3cc(NC(=O)[C@H](C)Oc4ccccc4C#N)ccc3o2)cc1 = > 25 µM

For the next question, use this molecule.
// field: CC50 at 24 h; key: `C[C@H](Nc1cccc(F)c1F)C(=O)Nc1ccc2oc(-c3ccc(C#N)cc3)nc2c1` ; value = > 25 µM

---

Assay Procedure: Tmax in mouse at 20 mg/kg, po
Type: ADME, organism-based
Experimental Conditions: in vivo
Measure: Tmax

Value of Tmax reported for the molecule `C[C@H](Nc1cccc(F)c1F)C(=O)Nc1ccc2oc(-c3ccc(C#N)cc3)nc2c1` is 30 min

---

Assay Procedure: Protein binding in mouse serum at 20 mg/kg, po
Format: ADME, organism-based
Experimental Conditions: read-out: PB
Measure: fraction unbound

Per the record, `C[C@H](Nc1cccc(F)c1F)C(=O)Nc1ccc2oc(-c3ccc(C#N)cc3)nc2c1` has fraction unbound of < 0.01

---

System: HepG2
Assay Procedure: Cytotoxicity against human HepG2 cells assessed as LDH release at 25 uM after 24 hrs relative to control
Assay type: cell-based
Experimental Conditions: hepg2, 24 h
Entries and their Activity

The reported value for `C[C@H](Nc1cccc(F)c1F)C(=O)Nc1ccc2oc(-c3ccc(C#N)cc3)nc2c1` in terms of Activity is 9 to 13%

get_value(item= `COc1ccc(-c2nc3cc(NC(=O)[C@H](C)Oc4ccccc4C#N)ccc3o2)cc1` , readout=Activity) returns 9 to 13%

Item: `C[C@H](Oc1cccc(F)c1F)C(=O)Nc1ccc2oc(-c3ccc(C#N)cc3)nc2c1` | Activity: 9 to 13%

---

System: Mycobacterium tuberculosis
Assay Procedure: Antitubercular activity against Mycobacterium tuberculosis H37Rv ATCC 27294 using 7H9/ADC/Tween medium after 1 week in absence of guanine by broth microdilution method
Assay type: functional
Experimental Conditions: H37Rv ATCC 27294, 168 h
Measure: MIC (µM)
Report the value in µM with no unit label.

C[C@H](Oc1cccc(F)c1F)C(=O)Nc1ccc2oc(-c3ccc(O)cc3)nc2c1 = 7

Lab book: MIC of `C#CCOC(=O)COc1ccc(-c2nc3cc(NC(=O)[C@H](C)Oc4cccc(Cl)c4Cl)ccc3o2)cc1` noted as 0.2

Looking up `C[C@H](Oc1cccc(F)c1F)C(=O)Nc1ccc2oc(-c3ccc(C#N)cc3)nc2c1` , I see its MIC listed as 1.5

Per the records, this compound ( `COc1ccc(-c2nc3cc(NC(=O)[C@H](C)Oc4cccc(F)c4F)ccc3o2)cc1` ) has MIC equal to 4

---

Test system: Mycobacterium tuberculosis
Assay Procedure: Antitubercular activity against Mycobacterium tuberculosis H37Rv ATCC 27294 using GAST/Fe medium after 1 week in presence of guanine by broth microdilution method
Assay type: functional
Experimental Conditions: H37Rv ATCC 27294, 168 h
Measure: MIC (µM)
Enter your answer as a number in µM; do not include the unit.

Past entries and their recorded results:
C#CCOC(=O)COc1ccc(-c2nc3cc(NC(=O)[C@H](C)Oc4cccc(Cl)c4Cl)ccc3o2)cc1 = 1.4
COc1ccc(-c2nc3cc(NC(=O)[C@H](C)Oc4cccc(Cl)c4Cl)ccc3o2)cn1 = 9
C[C@H](Oc1cccc(Cl)c1Cl)C(=O)Nc1ccc2oc(-c3ccc(OCC(=O)O)cc3)nc2c1 = 4

get_value(item= `CCOC(=O)COc1ccc(-c2nc3cc(NC(=O)[C@H](C)Oc4cccc(Cl)c4Cl)ccc3o2)cc1` , readout=MIC) returns 0.5

---

Test system: Mycobacterium tuberculosis
Assay Procedure: Antitubercular activity against Mycobacterium tuberculosis H37Rv ATCC 27294 using 7H9/ADC/Tween medium after 1 week in absence of guanine by broth microdilution method
Type: functional
Experimental Conditions: H37Rv ATCC 27294, 168 h
Measure: MIC (µM)
Enter your answer as a number in µM; do not include the unit.

Example entries and their recorded answers appear below.
C[C@H](Nc1cccc(Cl)c1Cl)C(=O)Nc1ccc2oc(-c3ccc(C#N)cc3)nc2c1 = 3
COc1ccc(-c2nc3cc(NC(=O)[C@H](C)Oc4ccccc4CN)ccc3o2)cc1 = 5.5
CCOC(=O)COc1cccc(-c2nc3cc(NC(=O)[C@H](C)Oc4cccc(Cl)c4Cl)ccc3o2)c1 = 1.6
C[C@H](Oc1cccc(Cl)c1Cl)C(=O)Nc1ccc2oc(-c3ccc(CN)cc3)nc2c1 = 25
C[C@H](Oc1ccccc1O)C(=O)Nc1ccc2oc(-c3ccc(C#N)cc3)nc2c1 = 9.4

Looking up `COc1ccc(-c2nc3cc(NC(=O)[C@H](C)Oc4cccc(Cl)c4Cl)ccc3o2)cn1` , I found its MIC recorded as 6

MIC in this record for `C[C@H](Oc1cccc(Cl)c1Cl)C(=O)Nc1ccc2oc(-c3ccc(C(=O)NO)cc3)nc2c1` : 30

For reference, reported MIC for `C[C@H](Oc1cccc(Cl)c1Cl)C(=O)Nc1ccc2oc(-c3ccc(C#N)cc3)nc2c1` stands at 3
